Provenance of the data: patent US10925881B2

Target: BRD4(1) (Homo sapiens (Human), UniProt O60885)
Assay: Alpha-assay binding, BRD4 site 1
Conditions: 12-point dose response curve, read-out: Bio-assay IC50 BRD4(1)
Procedure: The binding activity of lead compounds with the BRD4 site 1 was determined by Alpha-assay with a 12-point dose response curve.
Measurement kind: pIC50
Interpret pIC50 as the negative base-10 log of the concentration measured in mol/L.

Find the measured pIC50 of Cc1sc2c(c1C)C(c1ccc(Cl)cc1)=N[C@@H](CC(=O)NCCN1CCOCC1)c1nnc(C)n1-2 (stereo in doubt) [(S)-JQ33] and report it.
7.07

###

system: RIN-m5F; experiment: Cell Titer-Glo rat insulinoma cell assay, RIN-m5F; format: cell-based; details: read-out: IC50 Values, RIN-m5F, Example 8 additional data, cell viability after 168-192 total hours of culture
Measurement kind: pIC50
Field pIC50 (float): negative decimal logarithm of the concentration in molar.

Find the measured pIC50 of Cc1sc2c(c1C)C(c1ccc(Cl)cc1)=N[C@@H](CC(=O)OC(C)(C)C)c1nnc(C)n1-2 [(S)-JQ1] and report it.
7.29
